TARGET_ENTITY: UniProt:Q07075
Sequence (Q07075 whole entry): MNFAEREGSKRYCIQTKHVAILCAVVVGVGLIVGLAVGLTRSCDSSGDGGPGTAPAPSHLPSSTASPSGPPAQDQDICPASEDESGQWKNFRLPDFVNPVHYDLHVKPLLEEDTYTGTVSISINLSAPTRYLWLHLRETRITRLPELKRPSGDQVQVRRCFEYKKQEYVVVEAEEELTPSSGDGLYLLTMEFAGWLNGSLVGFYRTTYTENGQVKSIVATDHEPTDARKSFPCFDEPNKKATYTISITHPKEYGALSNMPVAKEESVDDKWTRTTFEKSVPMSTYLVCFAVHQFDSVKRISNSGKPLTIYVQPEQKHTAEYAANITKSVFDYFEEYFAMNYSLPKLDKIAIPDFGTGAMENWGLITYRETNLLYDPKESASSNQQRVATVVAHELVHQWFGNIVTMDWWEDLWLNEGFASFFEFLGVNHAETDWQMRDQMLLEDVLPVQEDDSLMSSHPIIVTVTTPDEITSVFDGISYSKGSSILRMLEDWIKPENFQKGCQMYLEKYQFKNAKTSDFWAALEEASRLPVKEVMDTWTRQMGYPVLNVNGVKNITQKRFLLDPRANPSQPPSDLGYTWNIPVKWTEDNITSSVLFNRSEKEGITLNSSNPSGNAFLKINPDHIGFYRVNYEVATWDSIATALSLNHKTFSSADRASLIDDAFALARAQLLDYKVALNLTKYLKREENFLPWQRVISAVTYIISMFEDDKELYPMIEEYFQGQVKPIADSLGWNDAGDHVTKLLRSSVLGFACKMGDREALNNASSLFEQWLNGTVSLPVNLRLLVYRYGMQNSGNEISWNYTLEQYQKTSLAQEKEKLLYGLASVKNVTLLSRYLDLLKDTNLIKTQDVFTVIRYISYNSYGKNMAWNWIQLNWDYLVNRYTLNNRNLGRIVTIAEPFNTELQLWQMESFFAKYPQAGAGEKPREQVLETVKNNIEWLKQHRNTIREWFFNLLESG
ASSAY_OVERVIEW: Binding affinity against recombinant Aminopeptidase A
pKi: −log10 of the molar value.
OUTCOME_MEASURE: pKi

cpd_smiles=CC[C@@H](C)[C@H](NC(=O)[C@@H](S)[C@H](N)CCS(=O)(=O)O)C(=O)N[C@@H](CC(=O)O)C(N)=O observed_result=6.33
cpd_smiles=CC[C@@H](C)[C@H](NC(=O)[C@H](S)[C@H](N)CCS(=O)(=O)O)C(=O)N[C@@H](CC(=O)O)C(N)=O observed_result=7.82
cpd_smiles=CC[C@@H](C)[C@H](NC(=O)[C@H](S)[C@@H](N)CCS(=O)(=O)O)C(=O)N[C@@H](CC(=O)O)C(=O)O observed_result=7.70

---

TARGET_ENTITY: Angiotensin-converting enzyme (Rattus norvegicus, UniProt P47820)
Sequence (P47820 whole entry): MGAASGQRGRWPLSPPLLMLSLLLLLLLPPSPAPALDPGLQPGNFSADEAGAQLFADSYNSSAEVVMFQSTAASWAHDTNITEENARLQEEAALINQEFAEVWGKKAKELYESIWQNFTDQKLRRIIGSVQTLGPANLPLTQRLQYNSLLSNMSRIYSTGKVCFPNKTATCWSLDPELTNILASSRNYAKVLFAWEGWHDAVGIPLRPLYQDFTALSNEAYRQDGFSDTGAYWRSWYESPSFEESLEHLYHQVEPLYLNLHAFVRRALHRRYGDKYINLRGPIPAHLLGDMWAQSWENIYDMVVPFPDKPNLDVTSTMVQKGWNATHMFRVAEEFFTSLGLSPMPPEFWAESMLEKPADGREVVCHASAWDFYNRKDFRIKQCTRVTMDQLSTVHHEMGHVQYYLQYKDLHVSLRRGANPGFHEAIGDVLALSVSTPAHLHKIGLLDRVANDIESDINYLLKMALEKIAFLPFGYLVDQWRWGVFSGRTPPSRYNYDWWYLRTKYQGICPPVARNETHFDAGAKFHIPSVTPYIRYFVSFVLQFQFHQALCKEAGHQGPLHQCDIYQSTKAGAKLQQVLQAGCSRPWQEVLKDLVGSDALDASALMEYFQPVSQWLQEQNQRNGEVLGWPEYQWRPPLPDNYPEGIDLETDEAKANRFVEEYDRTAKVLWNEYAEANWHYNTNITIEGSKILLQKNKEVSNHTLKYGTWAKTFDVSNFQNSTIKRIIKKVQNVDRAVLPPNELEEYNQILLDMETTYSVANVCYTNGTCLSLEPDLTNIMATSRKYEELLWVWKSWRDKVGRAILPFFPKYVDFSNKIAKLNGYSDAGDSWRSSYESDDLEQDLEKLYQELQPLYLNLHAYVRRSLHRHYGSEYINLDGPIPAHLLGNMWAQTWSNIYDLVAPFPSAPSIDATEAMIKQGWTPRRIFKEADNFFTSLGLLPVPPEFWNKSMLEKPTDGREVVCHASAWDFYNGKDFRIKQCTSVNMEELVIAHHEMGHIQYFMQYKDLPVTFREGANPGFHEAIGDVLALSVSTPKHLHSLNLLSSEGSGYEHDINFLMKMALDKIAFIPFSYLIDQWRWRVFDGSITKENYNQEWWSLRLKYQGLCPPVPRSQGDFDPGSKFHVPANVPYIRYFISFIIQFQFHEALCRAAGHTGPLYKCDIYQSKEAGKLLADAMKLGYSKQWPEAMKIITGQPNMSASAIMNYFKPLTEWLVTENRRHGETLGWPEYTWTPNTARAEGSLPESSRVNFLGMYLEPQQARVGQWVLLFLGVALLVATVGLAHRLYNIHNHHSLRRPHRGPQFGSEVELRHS
OUTCOME_MEASURE: Ki (µM)

cpd_smiles=N[C@H](CCS(=O)(=O)O)[C@@H](S)C(=O)N[C@@H](Cc1ccc(O)cc1)C(=O)N[C@@H](CCS(=O)(=O)O)C(=O)O target_entity="Angiotensin-converting enzyme (Rattus norvegicus, UniProt P47820)" outcome_measure=Ki observed_result=0.66
